# Tested on: SEM cells
# procedure summary: cell viability relative to DMSO control; higher = less cytotoxic
# condition notes: RPMI 5 mM glucose + 10% dialyzed FBS; 48 h; 0.00234 µM
Let's look at some compounds and their measured cell viability.
Numbers only; they are read as %.

Task: For the compound `Cc1nn(C)c(COc2ccc(N3CCN([S+](=O)([O-])N(C)C)CC3)cc2)c1-c1cccc2c(CCCOc3cccc4ccccc34)c(C(=O)O)n(CCN3CCOCC3)c12` , give its measured cell viability value.
Output: 106

Task: Tell me measured cell viability for `CC1=C(/C=C/C(C)=C/C=C/C(C)=C\C(=O)O)C(C)(C)CCC1` please.
Output: 78.3

Task: Read the entry `CCn1c(-c2nonc2N)nc2c(C#CC(C)(C)O)ncc(OC[C@H]3CCCNC3)c21` and write its reported cell viability.
Output: 85.2

Task: Give cell viability for the following compound: `CC(=O)OC[C@H]1O[C@@H]([S-])[C@H](OC(C)=O)[C@@H](OC(C)=O)[C@@H]1OC(C)=O.CCP(CC)CC.[Au+]`
Output: 85.1

====

# Test system: SEM cells
# procedure summary: cell viability relative to DMSO control; higher = less cytotoxic
# condition notes: RPMI 5 mM glucose + 10% dialyzed FBS; 48 h; 0.569 µM
assay endpoint: cell viability (%)
Write down the numeric answer in % and omit the unit.

[[record]]
compound = "CN1C(=O)C(=C\\C2=C1N=C(NC3=CC=CC(=C3)C(O)=O)N=C2)/C4=C(Cl)C=CC=C4Cl"
unit_symbol = "%"
reading = 100

[[record]]
compound = "CC(=O)N[C@@H]1[C@@H](NC(N)=N)\\C=C(/O[C@H]1[C@H](O)[C@H](O)CO)C(O)=O"
unit_symbol = "%"
reading = 38.4

[[record]]
compound = "COC(=O)Nc1nc2cc(C(=O)c3ccc(F)cc3)ccc2[nH]1"
unit_symbol = "%"
reading = 79.3


Task: Give the measured cell viability for `[O-]C(=O)C/1=N/C(=O)NC(=O)N1`
Output: 96.8

Task: Look up cell viability of `O=C(Nc1nnc(-c2ccco2)o1)c1cc(-c2ccccc2)nc2ccccc12` and report it.
Output: 99

====

# Test system: NOMO1
# procedure summary: cell viability relative to DMSO control; higher = less cytotoxic
# condition notes: RPMI 5 mM glucose + 10% FBS; 48 h; 0.19 µM
assay endpoint: cell viability (%)
Return type: number; implicit unit %.

Task: Complete the entry with cell viability for `CCN(CC)CCOc1ccc(Cc2ccccc2)cc1`
Output: 91.8

Task: Return reported cell viability. Input compound: `CCN(CCO)CCCOc1ccc2c(Nc3cc(CC(=O)Nc4cccc(F)c4)[nH]n3)ncnc2c1`
Output: 65.6

Task: Let me know recorded cell viability for `COC(=O)Nc1nc2cc(C(=O)c3ccc(F)cc3)ccc2[nH]1` , thanks.
Output: 97.5

Task: Provide one value: measured cell viability of `Cc1cn([C@H]2C=C[C@@H](CO)O2)c(=O)[nH]c1=O`
Output: 111

Task: Supply cell viability value. Item: `COc1cc([C@@H]2c3cc4c(cc3[C@H](O)[C@H]3COC(=O)[C@@H]23)OCO4)cc(OC)c1OC`
Output: 85.7

====

# Test system: P12-Ichikawa
# procedure summary: cell viability relative to DMSO control; higher = less cytotoxic
# condition notes: RPMI 5 mM glucose + 10% FBS; 48 h; 0.0211 µM
Entries annotated with measured cell viability
Dear colleague, please return just the value in %, with no unit written.

Field: example entries. Status: answers known.
[[record]]
compound = "CC(C)=CCC/C(C)=C/CC/C(C)=C/CC/C(C)=C/CC/C(C)=C/CC/C(C)=C/CC/C(C)=C/CC/C(C)=C/CC/C(C)=C/CO"
unit_symbol = "%"
reading = 103

[[record]]
compound = "CC(C)=CCC/C(C)=C/CC/C(C)=C/CSc1ccccc1C(=O)O"
unit_symbol = "%"
reading = 95.7

[[record]]
compound = "C[C@@H]1CN(Cc2ccc(F)cc2)[C@@H](C)CN1C(=O)c1cc2c(C(=O)C(=O)N(C)C)cn(C)c2cc1Cl"
unit_symbol = "%"
reading = 126

[[record]]
compound = "C[C@]12Cc3cn[nH]c3C[C@@H]1CC[C@@H]1[C@@H]2CC[C@@]2(C)[C@H]1CC[C@]2(C)O"
unit_symbol = "%"
reading = 112

[[record]]
compound = "CCC(C)N1\\N=C/N(C1=O)C2=CC=C(C=C2)N3CCN(CC3)C4=CC=C(OC[C@H]5CO[C@@](C[N]6C=NC=N6)(O5)C7=CC=C(Cl)C=C7Cl)C=C4 (some centres not stated)"
unit_symbol = "%"
reading = 114

[[record]]
compound = "O=C(CS(=O)Cc1ccco1)NC/C=C\\COc1cc(CN2CCCCC2)ccn1 (configuration not stated)"
unit_symbol = "%"
reading = 99.8


Let us move to another entry and its cell viability.
Task: Assign cell viability to the following record: `O=C([O-])C[C@H](O)C[C@H](O)/C=C/c1c(C2CC2)nc2ccccc2c1-c1ccc(F)cc1`
Output: 113
